Target: KRAS G12S (Homo sapiens (Human), UniProt P01116+P62937, G12S)
Sequence (P01116-2 other isoform, or with tags, fused parts or gaps G12S): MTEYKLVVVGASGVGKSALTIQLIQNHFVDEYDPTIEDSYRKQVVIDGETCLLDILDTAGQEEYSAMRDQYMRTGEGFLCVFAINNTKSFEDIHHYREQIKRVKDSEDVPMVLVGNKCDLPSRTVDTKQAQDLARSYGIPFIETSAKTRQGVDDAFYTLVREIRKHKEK
Sequence (P62937 whole entry): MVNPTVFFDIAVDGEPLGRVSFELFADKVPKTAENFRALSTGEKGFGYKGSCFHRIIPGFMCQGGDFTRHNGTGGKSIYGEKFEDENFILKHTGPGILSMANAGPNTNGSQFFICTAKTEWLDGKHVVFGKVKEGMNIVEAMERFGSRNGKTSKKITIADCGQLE
Experiment: Ras-Raf (BRAF RBD) disruption / FRET / MOA assay, KRAS G12S
Format: biochemical
Conditions: Ras-Raf disruption/FRET/MOA assay; class symbols; read-out: KRAS G12S FRET data IC50
endpoint-name: IC50

- compound: "CCn1c(-c2cccnc2)c2c3cc(ccc31)-c1cc(O)cc(c1)C[C@H](NC(=O)[C@H](C(C)C)N(C)C(=O)[C@H]1CCN(C(=O)C#CCN(C)C)C1)C(=O)N1CCC[C@H](N1)C(=O)OCC(C)(C)C2 [Example A142]"
  endpoint-name: "IC50"
  reported-measurement: "> 10 µM"
- compound: "C=C(C)C(=O)N1CC(N(C)C(=O)N(C)[C@H](C(=O)N[C@H]2Cc3nc(cs3)-c3ccc4c(c3)c(c(-c3cccnc3[C@H](C)OC)n4CC)CC(C)(C)COC(=O)[C@@H]3CCCN(N3)C2=O)C(C)C)C1 (atropisomer, axis not shown) [Example A360]"
  endpoint-name: "IC50"
  reported-measurement: "0.1 to 1 µM"
- compound: "CCn1c(-c2cccnc2[C@H](C)OC)c2c3cc(ccc31)-c1csc(n1)C[C@H](NC(=O)[C@H](C(C)C)N1CCC3(CCN(C(=O)C#CC(C)(C)N(C)C)CC3)C1=O)C(=O)N1CCC[C@H](N1)C(=O)OCC(C)(C)C2 (atropisomer, axis not shown) [Example A322]"
  endpoint-name: "IC50"
  reported-measurement: "> 10 µM"
- compound: "C=CC(=O)N(C)CCN1CCN(C(=O)N(C)[C@H](C(=O)N[C@H]2Cc3nc(cs3)-c3ccc4c(c3)c(c(-c3cccnc3[C@H](C)OC)n4CC)CC(C)(C)COC(=O)[C@@H]3CCCN(N3)C2=O)C(C)C)CC1 (atropisomer, axis not shown) [Example A630]"
  endpoint-name: "IC50"
  reported-measurement: "0.1 to 1 µM"
- compound: "C=CC(=O)N1CC[C@H](C(=O)N(C)[C@H](C(=O)N[C@H]2CN3CCC=C(C3)c3ccc4c(c3)c(c(-c3cccnc3[C@H](C)OC)n4CC)CC(C)(C)COC(=O)[C@@H]3CCCN(N3)C2=O)C(C)C)C1 (atropisomer, axis not shown) [Example A716]"
  endpoint-name: "IC50"
  reported-measurement: "1 to 10 µM"
- compound: "CCn1c(-c2cccnc2[C@H](C)OC)c2c3cc(ccc31)-c1cccc(c1)C[C@H](NC(=O)[C@H](C(C)C)N1CC[C@@]3(CCN(C(=O)C#CC(C)(C)N(C)C)C3)C1=O)C(=O)N1CCC[C@H](N1)C(=O)OCC(C)(C)C2 (atropisomer, axis not shown) [Example A414]"
  endpoint-name: "IC50"
  reported-measurement: "1 to 10 µM"
- compound: "C=CC(=O)N1CC(OCC(C(=O)N[C@H]2Cc3cccc(c3)-c3ccc4c(c3)c(c(-c3cccnc3[C@H](C)OC)n4CC)CC(C)(C)COC(=O)[C@@H]3CCCN(N3)C2=O)C(C)C)C1 (some centres unmarked) [Example A483]"
  endpoint-name: "IC50"
  reported-measurement: "> 10 µM"
- compound: "C=CC(=O)N1CC[C@H](C(=O)N(C)[C@H](C(=O)N[C@H]2Cc3cccc(c3)-c3ccc4c(c3)c(c(-c3cc(C5=CCN(C)CC5)cnc3[C@H](C)OC)n4CC)CC(C)(C)COC(=O)[C@@H]3CCCN(N3)C2=O)C(C)C)C1 (atropisomer, axis not shown) [Example A514]"
  endpoint-name: "IC50"
  reported-measurement: "> 10 µM"
